target: T1, SARS-CoV-2 S2 (40590-V08B, Sino Biological) (SARS-CoV-2, UniProt P0DTC2 686-1213); assay: ELISA on coated protein, anti-human IgG-HRP; AUC of the OD
T1 construct: domain: S2

[
  {
    "binder": "1246H7 (antibody, V domains shown) VH: QVQLQQSGPGLMKPSETLSLTCTVSGGSISSSSYYWGWIRQPPGKGLEWIGSIYYSGATYYNPSLKSRVTISVDTSKNQLSLKLSSVTAADTAVYYCVNRYYDYVWGSWGVDCWGQGTLVTVSS VL: QAGLTQPRSVSGSPGQSVTISCTGTSSDVGGYNYVSWYQQHPGKAPKLMIYDVNKRPSGVPDRFSGSKSGNTASLTISGLQAEDEADYFCCSYAGSYTYWVFGGGTKLTVL",
    "Binding AUC": 4.8
  }
]
